# measured-target: human sodium channels Nav 1.8 (Homo sapiens (Human), UniProt Q9Y5Y9)
# Sequence (Q9Y5Y9 whole entry): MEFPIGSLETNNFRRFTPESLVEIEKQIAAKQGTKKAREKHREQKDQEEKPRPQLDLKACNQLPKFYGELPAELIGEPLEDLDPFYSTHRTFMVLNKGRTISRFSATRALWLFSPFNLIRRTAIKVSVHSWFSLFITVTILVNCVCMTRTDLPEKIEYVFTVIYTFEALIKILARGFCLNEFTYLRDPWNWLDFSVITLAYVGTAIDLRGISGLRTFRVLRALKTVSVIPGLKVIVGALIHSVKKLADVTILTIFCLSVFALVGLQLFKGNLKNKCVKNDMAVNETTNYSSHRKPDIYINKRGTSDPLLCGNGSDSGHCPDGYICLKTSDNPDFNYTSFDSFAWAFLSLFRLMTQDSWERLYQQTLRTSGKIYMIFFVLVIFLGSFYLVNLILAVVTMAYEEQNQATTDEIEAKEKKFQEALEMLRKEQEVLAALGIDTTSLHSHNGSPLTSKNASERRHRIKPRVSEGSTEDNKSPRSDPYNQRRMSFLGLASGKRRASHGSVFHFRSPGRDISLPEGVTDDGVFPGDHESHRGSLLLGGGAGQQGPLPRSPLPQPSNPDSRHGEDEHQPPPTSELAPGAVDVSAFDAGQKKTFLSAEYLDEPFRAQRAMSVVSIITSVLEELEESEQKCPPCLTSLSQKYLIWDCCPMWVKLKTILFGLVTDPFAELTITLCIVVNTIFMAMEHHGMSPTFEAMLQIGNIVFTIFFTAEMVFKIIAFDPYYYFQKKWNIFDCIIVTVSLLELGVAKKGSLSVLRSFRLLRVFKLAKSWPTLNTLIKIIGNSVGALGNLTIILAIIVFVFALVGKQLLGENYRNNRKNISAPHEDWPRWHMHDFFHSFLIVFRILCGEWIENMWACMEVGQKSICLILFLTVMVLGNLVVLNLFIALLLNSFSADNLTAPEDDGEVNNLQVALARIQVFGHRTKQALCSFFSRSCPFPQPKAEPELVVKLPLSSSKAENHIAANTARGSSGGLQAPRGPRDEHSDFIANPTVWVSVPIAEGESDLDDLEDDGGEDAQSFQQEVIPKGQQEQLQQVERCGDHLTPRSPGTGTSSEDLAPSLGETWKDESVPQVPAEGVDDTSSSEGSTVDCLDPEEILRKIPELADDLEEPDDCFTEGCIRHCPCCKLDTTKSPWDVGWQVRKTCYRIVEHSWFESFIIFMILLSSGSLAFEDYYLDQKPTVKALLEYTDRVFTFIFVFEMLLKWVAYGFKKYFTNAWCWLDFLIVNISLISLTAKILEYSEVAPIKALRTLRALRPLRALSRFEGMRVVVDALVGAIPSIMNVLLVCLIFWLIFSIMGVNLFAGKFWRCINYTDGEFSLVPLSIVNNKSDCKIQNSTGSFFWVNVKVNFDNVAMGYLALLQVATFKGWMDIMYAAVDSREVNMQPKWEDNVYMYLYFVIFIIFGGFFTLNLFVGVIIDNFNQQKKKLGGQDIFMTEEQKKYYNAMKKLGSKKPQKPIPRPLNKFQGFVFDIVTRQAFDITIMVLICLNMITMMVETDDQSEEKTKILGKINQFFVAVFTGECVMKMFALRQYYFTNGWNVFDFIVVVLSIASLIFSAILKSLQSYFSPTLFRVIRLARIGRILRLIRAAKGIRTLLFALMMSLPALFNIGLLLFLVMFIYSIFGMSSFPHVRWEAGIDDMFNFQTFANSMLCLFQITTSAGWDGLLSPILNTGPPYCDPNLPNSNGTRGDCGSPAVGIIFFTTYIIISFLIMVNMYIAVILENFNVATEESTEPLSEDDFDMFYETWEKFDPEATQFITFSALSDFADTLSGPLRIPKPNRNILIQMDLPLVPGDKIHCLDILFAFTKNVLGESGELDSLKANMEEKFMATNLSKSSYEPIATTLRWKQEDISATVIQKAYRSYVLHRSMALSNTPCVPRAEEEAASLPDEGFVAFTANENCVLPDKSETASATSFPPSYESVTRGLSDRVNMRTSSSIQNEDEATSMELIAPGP
# measurement-notes: Automated whole-cell voltage-clamp (ScreenPatch 384P), Nav 1.8 sodium current, Protocol 2
# Assay type: cell-based
# condition-parameters: Protocol 2 (holding −100 mV, inactivation step −40 mV 8 s, 0.05 Hz); CHO cells expressing human Nav 1.8; read-out: Nav1.8 IC50
value-type: IC50 (nM)
Hi! Could you send only the number? It should be in nM, unit omitted.

Query :: Fill blank: measured IC50 of the compound COc1cc(/C=N/NC(=O)c2nccc(-c3ccc(Cl)cc3)n2)cc(OC)c1 is ____.
Result :: 5040

Query :: Fill blank: measured IC50 of the compound COc1cc(/C=N/NC(=O)c2ccnc(-c3ccc(OC(C)C)cc3)n2)cc(OC)c1 is ____.
Result :: 313

Query :: Fill blank: measured IC50 of the compound CCOc1ccc(-c2ccnc(C(=O)N/N=C/c3cc(OC)cc(OC)c3)n2)cc1 is ____.
Result :: 183

Query :: Fill blank: measured IC50 of the compound CCOc1ccc(-c2cc(F)cc(C(=O)N/N=C/c3cc(OC)cc(OC)c3)n2)cc1 is ____.
Result :: 636

Query :: Fill blank: measured IC50 of the compound COc1cc(/C=N/NC(=O)c2cccc(-c3ccc(OC(F)(F)F)cc3)n2)cc(OC)c1 is ____.
Result :: 140

Query :: Fill blank: measured IC50 of the compound COc1cc(/C=N/NC(=O)c2nccc(-c3ccc(OC(F)(F)F)cc3)n2)cc(OC)c1 is ____.
Result :: 384

Query :: Fill blank: measured IC50 of the compound CCOc1ccc(-c2cccc(C(=O)N/N=C/c3cc(OC)cc(OC)c3)n2)cc1 is ____.
Result :: 224

Query :: Fill blank: measured IC50 of the compound COc1ccc(-c2cccc(C(=O)N/N=C/c3cc(OC)cc(OC)c3)n2)cc1 is ____.
Result :: 754

Query :: Fill blank: measured IC50 of the compound CCCOc1ccc(-c2cccc(C(=O)N/N=C/c3cc(OC)cc(OC)c3)n2)cc1 is ____.
Result :: 297

Query :: Fill blank: measured IC50 of the compound COc1cc(/C=N/NC(=O)c2nccc(-c3ccc(OC(C)C)cc3)n2)cc(OC)c1 is ____.
Result :: 462
